Values compiled from the supplement of paper PMC10883282.

tested on: RD-ES; experiment: standardised AUC of viability dose-response curve (72 h) (fraction (0-1)); higher = less growth inhibition (more resistant)
Hi there, I'd appreciate the recorded standardised AUC for every entry that follows.
In your answer, state the number alone without any accompanying words.

So for CNC(=O)c1nnc(NC(=O)C2CC2)cc1Nc1cccc(-c2ncn(C)n2)c1OC , the logged standardised AUC turned out to be 0.99

Entry under test: CC#CC(=O)N1CCC[C@H]1c1nc(-c2ccc(C(=O)Nc3ccccn3)cc2)c2c(N)nccn12 . Its standardised AUC was 0.998

Recorded result, Cn1cc(C2=C(c3cn(C4CCN(Cc5ccccn5)CC4)c4ccccc34)C(=O)NC2=O)c2ccccc21 , standardised AUC: 1

standardised AUC reported for this compound Cc1cc2c(F)c(Oc3ncnn4cc(OC[C@@H](C)O)c(C)c34)ccc2[nH]1 : 0.996

---

Assign standardised AUC to each entry below.
test system: KHOS-240S; assay: standardised AUC of viability dose-response curve (72 h) (fraction (0-1)); higher = less growth inhibition (more resistant)

The molecule COC(=O)[C@@]1(O)C[C@H]2O[C@]1(C)n1c3ccccc3c3c4c(c5c6ccccc6n2c5c31)C(=O)NC4 [K-252A] showed standardised AUC equal to 0.717

For this molecule ( CNC(=O)c1ccccc1Sc1ccc2c(/C=C/c3ccccn3)n[nH]c2c1 ), measured standardised AUC is 0.849

Query CCN(CC)CCNC(=O)c1c(C)[nH]c(/C=C2\C(=O)Nc3ccc(F)cc32)c1C yields standardised AUC of 0.815

Summary for this molecule, O=c1sn(-c2cccc3ccccc23)c(=O)n1Cc1ccccc1 : standardised AUC is 0.983

Recorded standardised AUC (molecule CC(C)(O)CNc1nc(Nc2ccnc(C(F)(F)F)c2)nc(-c2cccc(C(F)(F)F)n2)n1 ): 0.995

# standardised AUC (molecule: C[C@]12O[C@H](C[C@]1(O)CO)n1c3ccccc3c3c4c(c5c6ccccc6n2c5c31)CNC4=O ) is 0.72

---

test system: SK-LMS-1; assay: standardised AUC of viability dose-response curve (72 h) (fraction (0-1)); higher = less growth inhibition (more resistant)
readout_name: standardised AUC

compound CC(C)NC[C@@H](C(=O)N1CCN(c2ncnc3c2[C@H](C)C[C@H]3O)CC1)c1ccc(Cl)cc1 , standardised AUC observed: 0.885

Input CO[C@H]1C[C@@H]2CC[C@@H](C)[C@@](O)(O2)C(=O)C(=O)N2CCCC[C@H]2C(=O)O[C@H]([C@H](C)C[C@@H]2CC[C@@H](OCCO)[C@H](OC)C2)CC(=O)[C@H](C)/C=C(\C)[C@@H](O)[C@@H](OC)C(=O)[C@H](C)C[C@H](C)/C=C/C=C/C=C/1C . Output standardised AUC: 0.645

The compound O=C1NC(=O)[C@@H](c2cn3c4c(cccc24)CCC3)[C@@H]1c1c[nH]c2ccccc12 [TIVANTINIB] showed standardised AUC equal to 0.79

CC#CC(=O)N1CCC[C@H]1c1nc(-c2ccc(C(=O)Nc3ccccn3)cc2)c2c(N)nccn12 has a reported standardised AUC of 0.996

---

test system: SYO-1; experiment: relative viability vs DMSO control (72 h) (fraction); higher = more viable cells; conditions: 0.00152 µM
readout_name: relative viability

Record COc1cc(CCc2cc(NC(=O)c3ccc(N4CC(C)NC(C)C4)cc3)n[nH]2)cc(OC)c1 (centres undefined) , field relative viability: 0.836

Short answer for COC(=O)[C@@]1(O)C[C@H]2O[C@]1(C)n1c3ccccc3c3c4c(c5c6ccccc6n2c5c31)C(=O)NC4 [K-252a] : relative viability was 0.982

Input N#CC1(c2ccc(NC(=O)c3cccnc3NCc3ccncc3)cc2)CCCC1 . Output relative viability: 1.01

Kindly note the recorded relative viability for CC(C)(C)c1nc(-c2cccc(NS(=O)(=O)c3c(F)cccc3F)c2F)c(-c2ccnc(N)n2)s1 , which is 0.926

---

system: SW1353; test: relative viability vs DMSO control (72 h) (fraction); higher = more viable cells; settings: 0.00017 µM
readout_name: relative viability

Input COC(=O)N[C@@H](C)CNc1nccc(-c2cn(C(C)C)nc2-c2cc(Cl)cc(NS(C)(=O)=O)c2F)n1 . Output relative viability: 1.06

Reported relative viability ( Cc1cc2cc(Oc3ccnc(Nc4cccc(CS(=O)(=O)NCCN(C)C)c4)n3)ccc2[nH]1 ) = 0.936

Form field relative viability, entry CN1CC[C@@H](NC(=O)Nc2ccc(C#N)cc2)C[C@@H]1c1nc2ccccc2[nH]1 : 1.1

Quick note, relative viability for CNC(=O)c1nnc(NC(=O)C2CC2)cc1Nc1cccc(-c2ncn(C)n2)c1OC landed at 0.962

relative viability in this record for CCN(CC)CCNC(=O)c1c(C)[nH]c(/C=C2\C(=O)Nc3ccc(F)cc32)c1C : 0.978

Quick note, relative viability for CCc1cnn2c(NCc3ccc[n+]([O-])c3)cc(N3CCCC[C@H]3CCO)nc12 landed at 1.05

relative viability reported for this molecule Cn1ncnc1[C@H]1c2n[nH]c(=O)c3cc(F)cc(c23)N[C@@H]1c1ccc(F)cc1 : 1.06

// field: relative viability; key: COC(=O)[C@@]1(O)C[C@H]2O[C@]1(C)n1c3ccccc3c3c4c(c5c6ccccc6n2c5c31)C(=O)NC4 [K-252a] ; value = 1.04

Entry CCC(=O)N1CC[C@H](Nc2ncnc3c2CN(c2cnc(OC)c(C(F)(F)F)c2)CC3)C1 , relative viability reported as 1.02

relative viability for N#CCNC(=O)c1ccc(-c2ccnc(Nc3ccc(N4CCOCC4)cc3)n2)cc1 is 1.1

Sure, the documented relative viability for CN1CCN(c2ccc(C(=O)Nc3n[nH]c4ccc(Cc5cc(F)cc(F)c5)cc34)c(NC3CCOCC3)c2)CC1 is 1.04

Documented relative viability of Cc1cc2c(F)c(Oc3ncnn4cc(OC[C@@H](C)O)c(C)c34)ccc2[nH]1 : 0.963

---

system: HS729; test: relative viability vs DMSO control (72 h) (fraction); higher = more viable cells; settings: 3.333 µM
readout_name: relative viability
In your answer, state the number alone without any accompanying words.

Noted relative viability for CC[C@@H]1CN(C(=O)NCC(F)(F)F)C[C@@H]1c1cnc2cnc3[nH]ccc3n12 , tested on HS729: 0.805

Given the molecule CN1CCN(c2ccc(C(=O)Nc3n[nH]c4ccc(Cc5cc(F)cc(F)c5)cc34)c(NC3CCOCC3)c2)CC1 and test system HS729, the measured relative viability is 0.665

Assay HS729, sample CCN1C(=O)N(c2c(F)c(OC)cc(OC)c2F)Cc2cnc3[nH]c(CN4CCOCC4)cc3c21 , relative viability read: 0.484

Given the molecule CC(C)(O)CNc1nc(Nc2ccnc(C(F)(F)F)c2)nc(-c2cccc(C(F)(F)F)n2)n1 and test system HS729, the measured relative viability is 1.01

relative viability value, target or system HS729, for Cc1cccc(-c2nn3c(c2-c2ccnc4ccc(C(N)=O)cc24)CCC3)n1 : 0.756

Hey, HS729 data for N#CC1(c2ccc(NC(=O)c3cccnc3NCc3ccncc3)cc2)CCCC1 : relative viability came out at 0.865

---

tested on: G401; experiment: relative viability vs DMSO control (72 h) (fraction); higher = more viable cells; conditions: 0.00051 µM
Give measured relative viability for each item. Keep answers brief.
Keep it simple and answer with nothing but the number.

The compound identified as O=c1sn(-c2cccc3ccccc23)c(=O)n1Cc1ccccc1 [Tideglusib] registered its relative viability at 1.12

What the record says about CCC(=O)N1CC[C@H](Nc2ncnc3c2CN(c2cnc(OC)c(C(F)(F)F)c2)CC3)C1 [Leniolisib] : relative viability is 1

Record summary for CCN(CC)CCNC(=O)c1c(C)[nH]c(/C=C2\C(=O)Nc3ccc(F)cc32)c1C [Sunitinib] : reported relative viability = 0.984

Looking up CN1CC[C@@H](NC(=O)Nc2ccc(C#N)cc2)C[C@@H]1c1nc2ccccc2[nH]1 [Glasdegib] , I found its relative viability recorded as 1.03

Form field relative viability, entry CO[C@H]1C[C@@H]2CC[C@@H](C)[C@@](O)(O2)C(=O)C(=O)N2CCCC[C@H]2C(=O)O[C@H]([C@H](C)C[C@@H]2CC[C@@H](OCCO)[C@H](OC)C2)CC(=O)[C@H](C)/C=C(\C)[C@@H](O)[C@@H](OC)C(=O)[C@H](C)C[C@H](C)/C=C/C=C/C=C/1C [Certican] : 0.873

compound COC(=O)[C@@]1(O)C[C@H]2O[C@]1(C)n1c3ccccc3c3c4c(c5c6ccccc6n2c5c31)C(=O)NC4 [K-252a] , relative viability observed: 1.06

Cc1cccc(-c2nn3c(c2-c2ccnc4ccc(C(N)=O)cc24)CCC3)n1 [Galunisertib] has a reported relative viability of 0.93

Reported relative viability of O=C(Nc1nc2cccc(-c3ccc(CN4CCS(=O)(=O)CC4)cc3)n2n1)C1CC1 [Filgotinib] : 1.04

Note to self: relative viability recorded for Cn1ncnc1[C@H]1c2n[nH]c(=O)c3cc(F)cc(c23)N[C@@H]1c1ccc(F)cc1 [Talazoparib] was 1.02

# relative viability of CC(C)(C)c1nc(-c2cccc(NS(=O)(=O)c3c(F)cccc3F)c2F)c(-c2ccnc(N)n2)s1 [Dabrafenib] = 0.994

# relative viability of CCN1C(=O)N(c2c(F)c(OC)cc(OC)c2F)Cc2cnc3[nH]c(CN4CCOCC4)cc3c21 [Pemigatinib] = 0.982

Summary for this compound, O=C1NC(=O)[C@@H](c2cn3c4c(cccc24)CCC3)[C@@H]1c1c[nH]c2ccccc12 [Tivantinib] : relative viability is 1.01
